Test system: 292921-168-R-J2-PDC complex spheroid growth;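 note: spheroids exposed to compounds for seven days after three days of growth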
Experiment: Anticancer human tumor 292921-168-R-J2-PDC patient-derived pancreatic carcinoma cell line growth inhibition [AhR]
Conditions: second compound 3.16 µM; first compound 0.003 µM; hits give low values
Provide the reported viability, T/C of each item.

Give me measured viability, T/C, please, for this molecule: CCc1c2c(nc3ccc(O)cc13)-c1cc3c(c(=O)n1C2)COC(=O)[C@]3(O)CC + CC(CO)NC(=O)c1cc(-c2ccc(Cl)cc2)nn(-c2cnn(C)c2)c1=O 32.9%

Give me measured viability, T/C, please, for this molecule: CC(C)CC(NC(=O)C(Cc1ccccc1)NC(=O)c1cnccn1)B(O)O (stereo unspecified) + CC(CO)NC(=O)c1cc(-c2ccc(Cl)cc2)nn(-c2cnn(C)c2)c1=O 85.6%

Give me measured viability, T/C, please, for this molecule: CCc1c2c(nc3ccc(O)cc13)-c1cc3c(c(=O)n1C2)COC(=O)[C@]3(O)CC + Cc1cncc(-c2nc(NCCc3c[nH]c4ccccc34)c3ncn(C(C)C)c3n2)c1 35.2%

Give me measured viability, T/C, please, for this molecule: Nc1ncn(C2CC(O)C(CO)S2)c(=O)n1 (stereo unspecified) + CC(CO)NC(=O)c1cc(-c2ccc(Cl)cc2)nn(-c2cnn(C)c2)c1=O 88.3%

Give me measured viability, T/C, please, for this molecule: Nc1ncn(C2CC(O)C(CO)S2)c(=O)n1 (stereo unspecified) + Cc1cncc(-c2nc(NCCc3c[nH]c4ccccc34)c3ncn(C(C)C)c3n2)c1 55.5%

Give me measured viability, T/C, please, for this molecule: Nc1ncn(C2CC(O)C(CO)S2)c(=O)n1 (stereo unspecified) + Cc1ccccc1N=Nc1ccc(NC(=O)c2ccnn2C)c(C)c1 66.1%

Hello, the source for this data is PubChem BioAssay AID1918994, in case you need it.
